Listing of entries alongside the reported viability.
# test: viability of PTEN-null HCT116 cells – cell-based, HCT116 clonal line, CellTiter-Glo, pilot screen (AID 824);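 note: 0% = 20 µM Hyamine control and 100% = vehicle cell control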
# measurement.parameters: HCT116 PTEN-deleted viability, 60 h, at 10 µM, stronger effect = lower value
Results filed as inconclusive are left out.
property.name: viability (%)

compound | property.name | unit.text | experimental.result
COC(=O)CCCCCc1ccc(C(C)=O)s1 | viability | % | 95
CCOC(=O)c1cccc(NC(=O)CNS(=O)(=O)c2cccs2)c1 | viability | % | 97.7
CCOC(=O)c1ccc(NC(=O)C2C3C=CC(C3)C2C(=O)O)cc1 (configuration not stated) | viability | % | 106
CC(Sc1nnc(Cn2c(=O)sc3ccccc32)n1C)c1ccccc1 (configuration not stated) | viability | % | 96.3
CC(C)(C)SCCNC(=O)COc1ccccc1 | viability | % | 96.6
CCSc1nnc2c(n1)OC1(CCCC1)Nc1ccccc1-2 | viability | % | 93.5
N#Cc1cnc2sc3ccccc3n2c1=N | viability | % | 95.9
C=CCn1c(SCC(=O)c2cccs2)nc2sc(CC)cc2c1=O | viability | % | 83.3
CCN1CCN(C(=O)C2CC(c3ccc(F)cc3)=NO2)CC1 (configuration not stated) | viability | % | 102
CC1CCCCN1S(=O)(=O)c1cccc2cccnc12 (configuration not stated) | viability | % | 83.7
Cc1ccc2nc(NC(=O)Cn3cc4c(n3)CCCCC4)sc2c1 | viability | % | 97
O=C(Cc1cc(=O)[nH]c(=O)[nH]1)NCC1CCCO1 (configuration not stated) | viability | % | 104
CCN=C(Nc1ccc2c(c1)OCO2)SC1CC(=O)N(c2ccccc2F)C1=O (configuration not stated) | viability | % | 95.9
CCN(Cc1ccccc1)C(=O)CSc1nc(C)cc(C)c1C#N | viability | % | 87.3
COC(=O)c1cc(=O)n(Cc2ccc3c(c2)OCO3)c(=Nc2ccccc2)s1 | viability | % | 73.3
O=C1c2ccccc2C(Nc2ccc(-c3nc4ccccc4[nH]3)cc2)N1Cc1ccco1 (configuration not stated) | viability | % | 62.1
CCn1cc(C2=NOC(C(=O)Nc3c(C)nn(Cc4ccc(F)cc4)c3C)C2)c(C)n1 (configuration not stated) | viability | % | 103

---

# test: viability of HCT116 without oncogenic beta-catenin – human colon tumor cells, pilot screen (AID 823);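 note: 0% = wells killed by 20 µM Hyamine and 100% = untreated DMSO cell wells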
# measurement.parameters: HCT116 beta-catenin knockout viability, CellTiter-Glo, 60 h; at 10 µM; stronger effect = lower value
Results filed as inconclusive are left out.
property.name: viability (%)

compound | property.name | experimental.result
CC(=O)Nn1cc2c(c1-c1ccccc1)c(=O)n(C)c(=O)n2C | viability | 93
CC(C)(C)NC(=O)CC(CC(=O)O)c1ccccc1 (stereo not drawn) | viability | 106
COCCCN(C)C1CCN(C(=O)Nc2ccc(F)cc2)CC1 | viability | 103

---

Listing of entries alongside the reported viability.
# test: Her2 expression decrease, cell viability multiplex – SKBR3 breast tumor cells, AlphaScreen, ATP viability, primary screen (AID 461);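 note: percent of carrier control wells set as 100% viability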
# measurement.parameters: SKBR3 Her2 protein level, 18-24 h, measured here: SKBR3 viability, ATP luminescence, at 10 µM
property.name: viability (%)

compound | experimental.result
COC(=O)CSc1nnc(-c2ccncc2)o1 | 116
CCN(CC)C(=O)Cn1ncc2c1-c1ccccc1OC2 | 84.5
COc1ccc(NC(=O)CSc2nc3c(c(=O)n2-c2ccccc2OC)SCC3)cc1 | 102
CCCCOC(=O)c1[nH]c2c(c1C)C(=O)CC(c1cc(OC)c(OC)c(OC)c1)C2 (stereo not given) | 89
CCCCSc1nc(CCC)cc(=O)[nH]1 | 86.5
CC1(C)CC(=O)C2=C(C1)NC(=O)CC2c1ccc(N(CCC#N)CCC#N)cc1 (stereo not given) | 101
COc1cc(OC)c2c(c1)OC(c1ccc(OC)c(OC)c1)C(O)C2=O (stereo not given) | 90.5
O=C(Cn1c(=O)[nH]c2ccsc2c1=O)NC1CCCCCC1 | 110
CCCc1nnc2n1N=C(c1ccc(-c3cc(Cl)ccc3Cl)o1)CS2 | 108
Cn1c(C(=O)NCCCN2CCCCCC2)cc2c(=O)n(C)c3ccccc3c21 | 80
CCc1cc(=O)n2[nH]c(C)c(-c3ccccc3OC)c2n1 | 80.5
c1ccc(-n2ncc3c(NC4CCCCCC4)ncnc32)cc1 | 83.5
CCN(CC)C1CCCCC1NS(=O)(=O)c1ccc(Cl)cc1 (stereo not given) | 104
O=C(CN1CCN(Cc2ccc(F)cc2Cl)C1=O)NCCCN1CCOCC1 | 99
CCCCc1nc2ccccc2n2cc3c(=O)n(C)c(=O)n(C)c3c12 | 86
CCOc1ccc(NC(=O)CCN2CCN(c3ccccc3)CC2)cc1 | 94.5
COc1ccc(C(NC(=O)c2ccco2)c2ccc(OC)c(OC)c2)cc1 (stereo not given) | 93
COC(=O)c1cn(NC(=O)c2cccnc2)c(=O)c2ccccc12 | 88
CN(C)CCN1C(=O)C(O)=C(C(=O)c2cc3ccccc3o2)C1c1ccc(N(C)C)cc1 (stereo not given) | 98.5
CCOC(=O)N1CCC(N2C(=O)c3ccccc3C2Nc2ccccc2C)CC1 (stereo not given) | 95.5
O=P(O)(CCc1ccccc1)CN1CCCCC1 | 106
Cc1onc(-c2ccccc2Cl)c1C(=O)Nc1cnn(Cc2ccccc2)c1 | 88.5
O=C(C1CCN(S(=O)(=O)c2cccc3cccnc23)CC1)N1CCN(C2CCCCC2)CC1 | 102
CCCCN(CCCC)CCn1cnc2c([nH]c3ccc(OC)cc32)c1=O | 76
C=CCSc1nnc(Cc2c(C)[nH]c3ccccc23)o1 | 90.5
COc1ccccc1N1C(=O)CCC1(C#N)c1ccccc1 (stereo not given) | 97
N#CCCN1CCN(S(=O)(=O)c2ccc(S(=O)(=O)NC3CCCC3)cc2)CC1 | 88.5
Cc1nnc(N2C(=O)C(O)=C(C(=O)c3ccco3)C2c2ccc(F)cc2)s1 (stereo not given) | 99
Cc1ccc(C(=O)CC2(O)C(=O)N(C)c3ccc(Br)cc32)c(C)c1 (stereo not given) | 85
COc1ccc(-c2nnc(SCC(=O)N3CCOCC3)o2)cc1OC | 91
CCN(CC)C(=O)Oc1ccccc1NC(C)=O | 102
COC(=O)c1ccc(-c2nn(C)c(=O)c3ccccc23)cc1 | 93.5
Cc1cccc(C2CC(c3ccccc3)Nc3nc(N)nn32)c1 (stereo not given) | 92
CC1CN(c2c3c(nc4ncnn24)CCCC3)CC(C)O1 (stereo not given) | 89.5
COc1cccc2cc(C(=O)N3CCN(c4ccc(C)cc4C)CC3)c(=O)oc12 | 116
